experiment: solvent given as SMILES; details: in Cc1ccccc1
Please use Criterion met for absorption maximum under 400 nm and Criterion not met for everything else, ties included.

**Query** Is 400 nm strictly greater than the compound's reported absorption maximum? compound: CC(C)c1cc(C(C)C)c(B2c3ccccc3Oc3cc(-n4c5ccccc5c5ccc6c(c7ccccc7n6-c6ccccc6)c54)ccc32)c(C(C)C)c1
**Result** Criterion not met

**Query** Does CCOC(=O)COc1ccc(/C=C/C2=C3c4ccccc4C(c4[nH]c(C)cc4C)=[N+]3[B-](F)(F)n3c(/C=C/c4ccc(OCC(=O)OCC)cc4)cc(C)c32)cc1 have absorption maximum strictly under 400 nm?
**Result** Criterion not met

**Query** Answer whether the compound F[B-]1(F)n2cccc2C(c2ccc(-c3c4ccccc4c(-c4ccccc4)c4ccccc34)cc2)=C2C=CC=[N+]21 has absorption maximum strictly less than 400 nm
**Result** Criterion not met

**Query** Here's an entry: c1ccc(-c2nc3ccccc3nc2-c2ccc(-n3c4ccccc4c4ccccc43)cc2)cc1 . Is its absorption maximum below 400 nm?
**Result** Criterion met

**Query** Is absorption maximum strictly under 400 nm for the entry c1ccc(-c2nc3c(ccc4[nH]ccc43)o2)cc1 ?
**Result** Criterion met

**Query** Bench note: check whether CCC1(CC)c2cc(/C=C/c3ccc(/C=C/c4ccc5c(c4)C(CC)(CC)c4cc(N6c7ccccc7Sc7ccccc76)ccc4-5)cc3)ccc2-c2ccc(N3c4ccccc4Sc4ccccc43)cc21 shows absorption maximum below 400 nm
**Result** Criterion not met

**Query** Lab note: confirm whether the reported absorption maximum for this compound is below 400 nm, equality not counting. compound: COC(=O)/C(C#N)=c1\s/c(=c2/s/c(=C(/C#N)C(=O)OC)c3cc(-c4ccc(F)cc4)sc23)c2sc(-c3ccc(F)cc3)cc12
**Result** Criterion not met

**Query** Lab note: absorption maximum threshold 400 nm. Does this compound come in strictly under it? COc1ccc(C2=C3C(C)=CC(C=Cc4ccc(C(=O)OC5C[C@H]6CCC5(C)C6(C)C)cc4)=[N+]3[B-](F)(F)n3c(/C=C/c4ccc(C(=O)OC5CC6CCC5(C)C6(C)C)cc4)cc(C)c32)cc1 (some centres undefined)
**Result** Criterion not met

**Query** Does CC1(C)c2ccccc2N(c2ccc(-c3nc4c(C#N)ccc(C#N)c4nc3-c3ccc(N4c5ccccc5C(C)(C)c5ccccc54)cc3)cc2)c2ccccc21 have absorption maximum strictly under 400 nm?
**Result** Criterion not met

**Query** Lab note: absorption maximum threshold 400 nm. Does this compound come in strictly under it? CCCCCCCCCCCCNc1cccc2[n+]1[B-](F)(F)n1c(c3cccc4cccc1c43)=N2
**Result** Criterion not met

**Query** Say whether its absorption maximum is strictly beneath 400 nm. Entry: CCCCCCCCCCCCn1cccc1/C=C/c1ccc(OCCCC)c2c(/C=C/c3cccn3CCCCCCCCCCCC)ccc(OCCCC)c12
**Result** Criterion met

**Query** Regarding c1cc2ccc3ccc4cc3c2cc1c1ccc2ccc3ccc(cc3c2c1)c1ccc2ccc3ccc4cc3c2c1 , kindly confirm whether its absorption maximum is beneath 400 nm.
**Result** Criterion met

**Query** Threshold test, absorption maximum < 400 nm: CCCCCCc1ccc(-n2c3[n+](c4c5ccccc5c5ccccc5c42)[B-](C)(C)c2ccccc2-3)cc1
**Result** Criterion met

**Query** Please indicate whether the reported absorption maximum of CCC1=C(C)C2=Cc3c4ccccc4c4n3[B-](C)(Oc3ccccc3-4)[N+]2=C1C (centres undefined) is strictly below 400 nm.
**Result** Criterion not met

**Query** Please let me know if N#Cc1c(-n2c3ccccc3c3cc(Br)ccc32)c(C#N)c(-n2c3ccccc3c3cc(Br)ccc32)c(-n2c3ccccc3c3cc(Br)ccc32)c1-n1c2ccccc2c2cc(Br)ccc21 shows absorption maximum below 400 nm.
**Result** Criterion met

**Query** Strictly below 400 nm in absorption maximum? O=[N+]([O-])c1ccc(-n2c3ccccc3c3c2c2ccccc2n3-c2ccccc2)cc1
**Result** Criterion not met

**Query** Field: below-cutoff. Rule: recorded absorption maximum strictly less than 400 nm. Subject: Oc1cccc(/N=C/c2ccccc2Oc2ccccc2)c1
**Result** Criterion met

**Query** A record lists CCn1c2ccccc2c2cc(-c3cc(-c4ccc5c(c4)c4ccccc4n5CC)nc(OC)n3)ccc21 . Is its absorption maximum below 400 nm?
**Result** Criterion met

**Query** Could you please tell me whether absorption maximum recorded for CC(C)(C)c1ccc2c(c1)c1cc(C(C)(C)C)ccc1n2-c1ccc(S(=O)(=O)c2cccc(S(=O)(=O)c3ccc(-n4c5ccc(C(C)(C)C)cc5c5cc(C(C)(C)C)ccc54)cc3)c2)cc1 is less than 400 nm?
**Result** Criterion met

**Query** Would you kindly verify if absorption maximum of F[B-]1(F)n2cccc2C(c2c3ccccc3c(-c3ccccc3)c3ccccc23)=C2C=CC=[N+]21 is strictly less than 400 nm?
**Result** Criterion not met

**Query** Please let me know if CCCCCCc1ccc2c3c(ccc2c1)O[B-](c1ccccc1)(c1ccccc1)[N+](c1cc([N+]2=Cc4c(ccc5cc(CCCCCC)ccc45)O[B-]2(c2ccccc2)c2ccccc2)cc([N+]2=Cc4c(ccc5cc(CCCCCC)ccc45)O[B-]2(c2ccccc2)c2ccccc2)c1)=C3 shows absorption maximum below 400 nm.
**Result** Criterion not met

====

assay: solvent given as SMILES; conditions: in CC#N
observable: absorption maximum

**Query** Provide only the value of recorded absorption maximum for OC1(c2ccc(-c3cccs3)s2)CCCCC1
**Result** 309 nm

**Query** Tell me absorption maximum reported for O=Cc1ccc(C2=C3C=c4c(oc5ccccc45)=[N+]3[B-](F)(F)n3c2cc2c4ccccc4oc23)cc1
**Result** 585.5 nm

**Query** Answer with the recorded absorption maximum of C(=C\c1cnc2ccccc2n1)/c1ccc(N(c2ccccc2)c2ccccc2)cc1 only.
**Result** 425 nm

**Query** State, in one line, measured absorption maximum of CN1/C(=C\C=C\C2=C3C=CC(c4ccccc4)=[N+]3[B-](F)(F)n3c2ccc3-c2ccccc2)Sc2ccccc21
**Result** 683 nm

**Query** Using known records, supply absorption maximum for c1ccc2c(c1)ccc1ncc3ccc4cnccc4c3c12
**Result** 403 nm

**Query** Find the measured absorption maximum of CC(C)(C)c1ccc2c(c1)c1cc(C(C)(C)C)ccc1n2-c1ccc(-c2nc(-c3ccc(-n4c5ccc(C(C)(C)C)cc5c5cc(C(C)(C)C)ccc54)cc3)nc(-c3ccc(P(=O)(c4ccccc4)c4ccccc4)cc3)n2)cc1 and report it.
**Result** 380.02 nm

**Query** Identify measured absorption maximum associated with O=C(NCc1cc(=O)oc2cc(O)c(Br)cc12)c1cccnc1
**Result** 392 nm

**Query** Report absorption maximum for COC1=[N+]2C(=C(c3ccc(C)cc3)c3ccc(OC)n3[B-]2(F)F)C=C1
**Result** 510 nm

**Query** Assign absorption maximum to the following record: CCC1=C(C)C(=O)n2c1cc1c(CCC(=O)OC)c(C)c(C)n1c2=O
**Result** 420 nm

**Query** # return recorded absorption maximum for entry N#Cc1nc2cnc(N)nc2n1Cc1ccccc1
**Result** 330 nm

**Query** Give the reported absorption maximum for this molecule. CCCCCCCCCCCCC(CCCCCCCCCC)Cn1c2cc(/C=C/C=C/c3nc4ccccc4s3)c3cccc4c5cccc6c(/C=C/C=C/c7nc8ccccc8s7)cc1c(c65)c2c34 (configuration not stated)
**Result** 528 nm

**Query** Return reported absorption maximum. Input molecule: CN(C)c1ccc(/C=C/C=C/c2nc3ccccc3o2)cc1
**Result** 410 nm

**Query** Given COC(=O)C(NC(=O)OC(C)(C)C)c1ccc2oc(-c3ccc(F)cc3)nc2c1 (configuration not stated) , respond with its absorption maximum.
**Result** 314 nm

**Query** For the molecule CC(C)[Si]1(C(C)C)c2cc(C=O)ccc2-c2ccc(N(C)C)cc21 , give its reported absorption maximum.
**Result** 391 nm

**Query** Identify measured absorption maximum associated with F[B-]1(F)n2c(NCc3ccccc3)ccc2C(c2c(Cl)cccc2Cl)=C2C=CC(NCc3ccccc3)=[N+]21
**Result** 578 nm

**Query** Annotate the molecule Cc1c2oc3c(C)c(N)cc(C(=O)NC4OC(=O)C(C(C)C)N(C)C(=O)CN(C)C(=O)C5CCCN5C(=O)C(C(C)C)NC4=O)c3nc-2c(C(=O)NC2OC(=O)C(C(C)C)N(C)C(=O)CN(C)C(=O)C3CCCN3C(=O)C(C(C)C)NC2=O)c(N)c1=O (configuration not stated) with its measured absorption maximum.
**Result** 516.03 nm

**Query** Respond only with absorption maximum recorded for CCOc1cc2c(cc1/C=C/C(=C(C#N)C#N)c1ccccc1)c1ccccc1n2CC
**Result** 462 nm

====

Record form. Attribute: absorption maximum. Fill in for each entry.
assay: solvent given as SMILES; conditions: in CN(C)C=O
The answer is to be given in nm; state only the numeric part.

**Query** Report absorption maximum for CCCCCCCCC1(CCCCCCCC)c2cc(C#CC#Cc3ccc(N(c4ccccc4)c4ccccc4)cc3)ccc2-c2ccc(C=O)cc21
**Result** 382

**Query** Recall and state the measured absorption maximum for Cc1cc(O)c(C(C)C)cc1/N=C/c1ccc([N+](=O)[O-])cc1 .
**Result** 407

**Query** Indicate its recorded absorption maximum; the compound in question is c1ccc2[nH]c(-c3ccc(-c4ccc(-c5ccc(-c6nc7ccccc7[nH]6)cc5)cc4)cc3)nc2c1
**Result** 349

**Query** Answer with the recorded absorption maximum of C(=C\c1cccc2ccccc12)/c1ccc(-c2nnc(-c3ccc(-c4cc5ccccc5s4)cc3)o2)cc1 only.
**Result** 357

**Query** Provide measured absorption maximum value, entry: CCCCCCCCCCOc1ccc2c3c(oc2c1)C1=C2C(=O)N4C=Cc5c(oc6cc(OCCCCCCCCCC)ccc56)C4=C2C(=O)N1C=C3
**Result** 648

**Query** Please report the measured absorption maximum for Oc1cccc(/N=C/c2ccccc2Oc2ccccc2)c1
**Result** 329

**Query** Identify absorption maximum associated with the compound O=C1/C(=C\c2ccc(N(c3ccccc3)c3ccccc3)cc2)S(=O)(=O)c2ccccc21
**Result** 478

**Query** Quote absorption maximum reported for C(=C\c1ccc(/C=C/c2ccc(N(c3ccccc3)c3ccccc3)cc2)c2nsnc12)/c1ccc(N(c2ccccc2)c2ccccc2)cc1 please.
**Result** 513
